Target system: TLR7 (Homo sapiens, UniProt Q9NYK1)
Sequence (Q9NYK1 27-1049): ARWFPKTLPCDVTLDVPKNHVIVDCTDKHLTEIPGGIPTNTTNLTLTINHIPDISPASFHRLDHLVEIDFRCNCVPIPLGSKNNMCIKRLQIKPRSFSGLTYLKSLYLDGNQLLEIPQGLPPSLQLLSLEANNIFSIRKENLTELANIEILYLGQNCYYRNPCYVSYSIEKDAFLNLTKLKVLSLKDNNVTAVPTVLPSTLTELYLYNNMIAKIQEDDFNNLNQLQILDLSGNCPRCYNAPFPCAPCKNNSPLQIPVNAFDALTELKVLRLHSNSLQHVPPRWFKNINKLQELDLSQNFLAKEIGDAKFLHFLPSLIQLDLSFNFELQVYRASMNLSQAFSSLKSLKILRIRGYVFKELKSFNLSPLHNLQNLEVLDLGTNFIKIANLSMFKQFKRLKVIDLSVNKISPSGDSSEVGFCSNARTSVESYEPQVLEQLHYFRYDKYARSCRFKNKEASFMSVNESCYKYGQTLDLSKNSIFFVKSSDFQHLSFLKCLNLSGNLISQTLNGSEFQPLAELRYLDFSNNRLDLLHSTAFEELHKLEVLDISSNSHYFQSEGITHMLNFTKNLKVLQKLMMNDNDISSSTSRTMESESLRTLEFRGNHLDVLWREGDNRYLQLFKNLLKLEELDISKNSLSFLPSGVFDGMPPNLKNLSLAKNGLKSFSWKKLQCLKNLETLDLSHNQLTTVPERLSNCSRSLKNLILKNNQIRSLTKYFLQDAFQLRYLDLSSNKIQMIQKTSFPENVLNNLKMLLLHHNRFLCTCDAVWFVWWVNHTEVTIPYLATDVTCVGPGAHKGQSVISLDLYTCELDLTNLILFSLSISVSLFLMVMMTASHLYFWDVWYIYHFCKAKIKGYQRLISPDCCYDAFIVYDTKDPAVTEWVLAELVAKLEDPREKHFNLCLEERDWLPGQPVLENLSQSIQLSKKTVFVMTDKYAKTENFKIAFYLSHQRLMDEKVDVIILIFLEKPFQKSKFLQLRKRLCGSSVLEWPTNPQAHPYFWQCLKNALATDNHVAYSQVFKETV
Test method notes: HEK/293 TLR7 Cell Assay
Assay conditions: TLR7/NFKb HEK cells, R848 agonist 10 uM final concentration, Steady-Glo readout; read-out: TLR7 potency
pIC50: −log10 of the molar value.
Metric name: pIC50

Query :: Which pIC50 reading was recorded for the compound C[C@@H]1CN(c2ccc(C#N)c3nccnc23)C[C@H](C(=O)NC2CCN(CC(F)(F)F)CC2)O1 [Example 247] ?
Result :: > 7.12

Query :: Could you tell me which pIC50 is on file for N#Cc1ccc(N2C[C@@H](CN3CC(O)C3)O[C@@H](C(F)(F)F)C2)c2nccnc12 (single isomer, unassigned) [Example 362] ?
Result :: > 7.12

Query :: Which value of pIC50 has been reported for C[C@@H]1CN(c2cnc(C(F)(F)F)c3ncccc23)C[C@H](CNC[C@@H]2CN(C)CCO2)O1 (single isomer, unassigned) [Example 386] in the records?
Result :: < 6.82

Query :: Fill blank: measured pIC50 of the compound Cc1nnc([C@H]2CN(c3ccc(C#N)c4nccnc34)C[C@@H](C)O2)o1 (racemic) [Example 212] is ____.
Result :: < 6.82

Query :: Value lookup for pIC50; key = C[C@H]1C[C@@H](NC(=O)[C@@H]2CCCN2)CN(c2ccc(C#N)c3nccnc23)C1 [Example 175]
Result :: 6.82 to 7.12

----------
Record form. Attribute: IC50. Fill in for each entry.
Target system: TLR7 (Homo sapiens)
Test method notes: HEK/293 TLR7 Cell Assay
Assay conditions: TLR7/NFKb HEK cells, R848 agonist 10 uM final concentration, Steady-Glo readout; read-out: TLR7 potency

Query :: Which IC50 value is on record for C[C@@H]1CN(c2cnc(C#N)c3ncccc23)C[C@H](CNC(=O)[C@]2(F)CCCNC2)O1 (single isomer, unassigned) [Example 339] ?
Result :: > 150 nM

Query :: Could you tell me which IC50 is on file for C[C@H]1C[C@@H](NCC(=O)N2CCOCC2)CN(c2ccc(C(F)(F)F)c3ncccc23)C1 [Example 18] ?
Result :: < 75 nM

Query :: Find the recorded IC50 belonging to Cc1ncc(N2C[C@H](NC(=O)CC3CCNCC3F)C[C@H](C(F)(F)F)C2)c2cccnc12 (some centres unmarked) [Example 136] and report it.
Result :: 75 to 150 nM

Query :: Record request: IC50 value, item N#Cc1ccc(N2C[C@@H](C(=O)NC[C@]3(F)CCNC3)O[C@@H](C(F)(F)F)C2)c2nccnc12 (single isomer, unassigned) [Example 310]
Result :: < 75 nM

Query :: What does the record list as IC50 for Cc1c(F)cc(N2C[C@@H](C)C[C@@H](NC(=O)CC3(O)CCN(C)CC3)C2)c2cccnc12 [Example 69] ?
Result :: < 75 nM

Query :: Any idea what its IC50 is? The molecule is C[C@H]1C[C@@H](NS(=O)(=O)NC2CCN(C)CC2)CN(c2ccc(C(F)(F)F)c3ncccc23)C1 [Example 200]
Result :: < 75 nM

Query :: Which value of IC50 has been reported for C[C@H]1C[C@@H](NC(=O)CCN(C)C)CN(c2ccc(C#N)c3nccnc23)C1 [Example 79] in the records?
Result :: < 75 nM

Query :: Quick one: IC50 for C[C@@H]1CN(c2ccc(C#N)c3nccnc23)C[C@H](C(=O)NC[C@@H](O)C(F)(F)F)O1 [Example 250] ?
Result :: < 75 nM

Query :: Record request: IC50 value, item C[C@@H]1CN(c2ccc(C(F)(F)F)c3ncccc23)C[C@H](CN2CCN(C)CC2)O1 [Example 330]
Result :: < 75 nM

Query :: # IC50 lookup, item N#Cc1ccc(N2C[C@H](NC(=O)CC3(F)CCNCC3)C[C@H](C(F)(F)F)C2)c2nccnc12 [Example 118]
Result :: < 75 nM

Query :: Tell me the measured IC50 of C[C@@H](O)CNC(=O)[C@@H]1CN(c2ccc(C#N)c3nccnc23)C[C@H](C(F)(F)F)O1 (single isomer, unassigned) [Example 279] , please.
Result :: 75 to 150 nM

Query :: If you can, please state the reported IC50 value of N#Cc1ccc(N2C[C@@H](C(=O)NC[C@]3(F)CCNC3)O[C@@H](C(F)(F)F)C2)c2cccnc12 (single isomer, unassigned) [Example 313] .
Result :: < 75 nM

Query :: Endpoint output: IC50 of N#Cc1ccc(N2C[C@H](NC(=O)C3(F)CCNC3)C[C@H](C(F)(F)F)C2)c2cccnc12 (single isomer, unassigned) [Example 163] . Value?
Result :: < 75 nM

Query :: I'd like to know its IC50. The molecule in question is C[C@H]1C[C@@H](NCC2CCC(=O)N2)CN(c2ccc(C(F)(F)F)c3ncccc23)C1 (some centres unmarked) [Example 48]
Result :: < 75 nM
